Measured pIC50, listed per entry.
# System: TCF/LEF luciferase Reporter in DLD1 cells
# protocol_details: TCF reporter assay (DLD1 TCF/LEF luciferase reporter, Bright-Glo)
# Format: cell-based
# condition_info: read-out: DLD1 4% Abs IC50; DLD1 4%
In textbook form, pIC50 equals minus log to base ten of the concentration in mol/L.

CC(=O)N1CCC[C@]12CC=CCCCC1(CCCC=CCCCOC(=O)N3CC[C@@](C(=O)N[C@@H](Cc4ccsc4)C(=O)N[C@@H](Cc4csc5ccccc45)C(=O)N[C@@H](C)C(N)=O)(C3)NC(=O)[C@H](CC(C)C)NC(=O)[C@H](Cc3ccccc3)NC(=O)[C@H](C)NC(=O)C(C)(C)NC(=O)[C@H](Cc3cccc(C(=O)O)c3)NC(=O)[C@H](CC(=O)O)NC1=O)NC(=O)[C@H](CC(C)(C)C)NC(=O)[C@H](CC(=O)O)NC2=O (some centres unmarked) :: 5.92
CC(=O)N1CCC[C@]12CC=CCCCC1(CCCC=CCCCCCC[C@@](C)(C(=O)N[C@@H](Cc3ccccc3Cl)C(=O)N[C@@H](Cc3csc4ccccc34)C(=O)N[C@@H](CCO)C(N)=O)NC(=O)[C@H](CO)NC(=O)[C@H](Cc3ccccc3)NC(=O)[C@H](C)NC(=O)[C@H](C)NC(=O)[C@H](CN(CC(=O)O)CC(F)(F)F)NC(=O)[C@H](CC(=O)O)NC1=O)NC(=O)[C@H](CC(C)(C)C)NC(=O)[C@H](CC(=O)O)NC2=O (single isomer, unassigned) :: 5.25
CC(=O)N1CCC[C@]12CC=CCCCC1(CCCC=CCCCOC(=O)N3CC[C@@](C(=O)N[C@@H](Cc4ccccc4Cl)C(=O)N[C@@H](Cc4csc5ccccc45)C(=O)N[C@@H](CC(N)=O)C(=O)N[C@@H](C)C(=O)N[C@@H](C)C(=O)N[C@H](C)C(N)=O)(C3)NC(=O)[C@H](CC(C)C)NC(=O)[C@H](Cc3ccccc3)NC(=O)[C@H](C)NC(=O)[C@H](C)NC(=O)[C@H](Cc3cccc(C(=O)O)c3)NC(=O)[C@H](CC(=O)O)NC1=O)NC(=O)[C@H](CC(C)(C)C)NC(=O)[C@H](CC(=O)O)NC2=O (some centres unmarked) :: 5.72
CCN(CC(=O)O)C[C@@H]1NC(=O)[C@H](CC(=O)O)NC(=O)C2(CCCC=CCCCOC(=O)N3CC[C@@](C(=O)N[C@@H](Cc4ccsc4)C(=O)N[C@@H](Cc4csc5ccccc45)C(=O)N[C@@H](CCC(N)=O)C(N)=O)(C3)NC(=O)[C@H](CC(C)C)NC(=O)[C@H](Cc3ccccc3)NC(=O)[C@H](C)NC(=O)[C@H](C)NC1=O)CCCC=CC[C@]1(CCCN1C(C)=O)C(=O)N[C@@H](CC(=O)O)C(=O)N[C@@H](CC(C)(C)C)C(=O)N2 (some centres unmarked) :: 5.00

Okay, now this compound:
TCF/LEF luciferase Reporter in DLD1 cells / pIC50 / CC(=O)N1CCC[C@]12CC=CCCCC1(CCCC=CCCCOC(=O)N3CC[C@@](C(=O)N[C@@H](Cc4ccsc4)C(=O)N[C@@H](Cc4csc5ccccc45)C(=O)N[C@@H](C)C(N)=O)(C3)NC(=O)[C@H](CC(C)C)NC(=O)[C@H](Cc3ccccc3)NC(=O)[C@H](C)NC(=O)[C@H](CCC(N)=O)NC(=O)[C@H](Cc3cccc(C(=O)O)c3)NC(=O)[C@H](CC(=O)O)NC1=O)NC(=O)[C@H](CC(C)(C)C)NC(=O)[C@H](CC(=O)O)NC2=O (some centres unmarked) : value?
5.19
